# Subject Of Test: BACE1 (Homo sapiens)
# Procedure Text: In Vitro BACE Cell-based Assay (HEK cell assay): Aβ40 in conditioned medium of cells stably expressing Amyloid Precursor Protein, sandwich ELISA
# Conditions: Table 1; Aβ40, 24 h incubation; read-out: HEK cell assay
Property: IC50

>>> test_result("COc1cccc(-c2ccc3c(c2)C2(COC(N)=N2)c2ccc(C)cc2O3)c1F (centres unmarked) [Example 30]")
"> 5000 nM"
>>> test_result("CCCOc1ccc2c(c1)[C@@]1(COC(N)=N1)c1cc(-c3cncnc3)ccc1O2 [Example 11]")
"1000 to 5000 nM"
>>> test_result("COc1ccc2c(c1)C1(COC(N)=N1)c1cc(Br)ccc1O2 (centres unmarked) [Example 35]")
"> 5000 nM"
>>> test_result("Cc1ccc2c(c1)Oc1ccc(-c3cccc(Cl)c3)cc1C21COC(N)=N1 (centres unmarked) [Example 25]")
"1000 to 5000 nM"
>>> test_result("CCCOc1ccc2c(c1)C1(COC(N)=N1)c1cc(-c3cncnc3)ccc1O2 (centres unmarked) [Example 9]")
"100 to 1000 nM"

* * *

# Subject Of Test: UniProt:P56817
# Procedure Text: In Vitro BACE Cell-based Assay (HEK cell assay): Aβ40 in conditioned medium of cells stably expressing Amyloid Precursor Protein, sandwich ELISA
# Conditions: Table IV, class symbols; read-out: HEK cell assay
pIC50: −log10 of the molar value.
# Lookup of reported pIC50 keyed by entry
Property: pIC50

>>> test_result("CC(C)CCCOc1nccc2c1[C@]1(COC(N)=N1)c1cc(-c3cccnc3)ccc1O2")
"6.00 to 7.00"
>>> test_result("COc1cc(F)c2c(c1)[C@@]1(COC(N)=N1)c1cc(-c3cncnc3)ccc1O2")
"< 5.30"
>>> test_result("CC(C)(O)C#Cc1cnc2c(c1)[C@]1(COC(N)=N1)c1cc(-c3ccccc3)ccc1O2")
"> 7.00"
>>> test_result("NC1=N[C@@]2(CO1)c1ccccc1Oc1ccc(-c3cnc4ccccc4c3)cc12")
"< 5.30"
>>> test_result("COc1ccc2c(c1)[C@]1(COC(N)=N1)c1cc(NC(=O)c3cc(Cl)ccn3)ccc1O2")
"< 5.30"
>>> test_result("NC1=N[C@@]2(CO1)c1ccccc1Oc1ccc(-c3cncnc3)cc12")
"6.00 to 7.00"
>>> test_result("NC1=N[C@@]2(CO1)c1cc(-c3cccnc3)ccc1Oc1cnc(C3=CCCCC3)cc12")
"> 7.00"
>>> test_result("NC1=N[C@@]2(CO1)c1cc(-c3cncnc3)ccc1Oc1ccc(C(F)(F)F)cc12")
"6.00 to 7.00"

* * *

# Subject Of Test: BACE1 (Homo sapiens, UniProt P56817)
# Sequence (P56817 46-501, species assumed): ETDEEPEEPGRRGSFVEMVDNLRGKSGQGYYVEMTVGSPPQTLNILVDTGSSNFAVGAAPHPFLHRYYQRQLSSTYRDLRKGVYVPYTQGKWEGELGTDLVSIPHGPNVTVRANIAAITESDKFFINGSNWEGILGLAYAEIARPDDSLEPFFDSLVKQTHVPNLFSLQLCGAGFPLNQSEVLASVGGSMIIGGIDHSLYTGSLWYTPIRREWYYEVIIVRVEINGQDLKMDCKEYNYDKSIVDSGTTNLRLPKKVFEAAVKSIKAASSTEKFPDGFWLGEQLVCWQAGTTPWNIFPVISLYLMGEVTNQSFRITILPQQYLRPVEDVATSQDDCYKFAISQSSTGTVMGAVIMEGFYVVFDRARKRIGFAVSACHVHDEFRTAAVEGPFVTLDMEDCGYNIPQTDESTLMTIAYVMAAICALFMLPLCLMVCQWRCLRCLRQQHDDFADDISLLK
# Procedure Text: In Vitro Enzymatic BACE FRET (Fluorescence Resonance Energy Transfer) Assay
# Format: biochemical
# Conditions: Table III; IC50's in uM ranges; read-out: BACE1 FRET assay
Property: IC50

>>> test_result("NC1=NC2(CO1)c1cc(-c3ccc(F)nc3)ccc1Oc1ccc(-c3ccc(F)nc3)cc12")
"< 0.1 µM"
>>> test_result("COc1ccncc1-c1ccc2c(c1)[C@@]1(COC(N)=N1)c1cc(OCC(C)(C)C)ccc1O2")
"0.1 to 1 µM"
>>> test_result("CC(C)(C)COc1ccc2c(c1)[C@]1(COC(N)=N1)c1cc(-c3csc(N4CCCC4)n3)ccc1O2")
"1 to 5 µM"
>>> test_result("COC(C)(C)C#Cc1ccc2c(c1)[C@]1(COC(N)=N1)c1cc(-c3cccnc3)ccc1O2")
"< 0.1 µM"

* * *

# Lookup of reported IC50 keyed by entry
# Subject Of Test: BACE1 (Homo sapiens, UniProt P56817)
# Procedure Text: In Vitro BACE Cell-based Assay (HEK cell assay): Aβ40 in conditioned medium of cells stably expressing Amyloid Precursor Protein, sandwich ELISA
# Conditions: Table III; IC50's in uM ranges; read-out: HEK cell assay
Property: IC50

>>> test_result("CN(C)CC#Cc1ccc2c(c1)[C@@]1(COC(N)=N1)c1cc(-c3cncnc3)ccc1O2 [117b]")
"0.1 to 1 µM"
>>> test_result("CC(C)(O)C#Cc1ccc2c(c1)[C@]1(COC(N)=N1)c1cc(-c3cccnc3)ccc1O2 [151a]")
"< 0.1 µM"
>>> test_result("CC(C)(C)C#Cc1ccc2c(c1)[C@]1(COC(N)=N1)c1cc(Oc3ccccn3)ccc1O2 [Example 112]")
"0.1 to 1 µM"
>>> test_result("CC(C)(C)CC(=O)c1ccc2c(c1)[C@@]1(COC(N)=N1)c1cc(-c3ccc(F)nc3)ccc1O2 [150b]")
"0.1 to 1 µM"
>>> test_result("CC(C)(C)COc1ccc2c(c1)[C@]1(COC(N)=N1)c1cc(-c3cncnc3)cc(F)c1O2 [155b]")
"0.1 to 1 µM"
>>> test_result("COCC#Cc1ccc2c(c1)[C@@]1(COC(N)=N1)c1cc(-c3cncnc3)ccc1O2 [156b]")
"0.1 to 1 µM"
>>> test_result("COc1ccc2c(c1)[C@]1(N=C(N)O[C@H]1C)c1cc(-c3cncnc3)ccc1O2 (single isomer, unassigned) [Example 125a]")
"> 5 µM"
>>> test_result("CC(C)(O)COc1ccc2c(c1)[C@]1(COC(N)=N1)c1cc(-c3ccccc3)ccc1O2 [compound 221]")
"0.1 to 1 µM"
>>> test_result("CC(C)(O)COc1ccc2c(c1)[C@]1(COC(N)=N1)c1cc(-c3cccnc3)ccc1O2 [Example 135]")
"< 0.1 µM"
>>> test_result("CC(C)(C#N)COc1ccc2c(c1)[C@]1(COC(N)=N1)c1cc(C#CC3CC3)ccc1O2 [compound 178]")
"0.1 to 1 µM"
>>> test_result("NC1=N[C@]2(CO1)c1cc(-c3cccnc3)ccc1Oc1ccc(-c3cncnc3)cc12 [Example 124]")
"< 0.1 µM"
>>> test_result("CC(=O)c1cccc(-c2ccc3c(c2)[C@]2(COC(N)=N2)c2cc(OCC(C)(C)C)ccc2O3)c1 [compound 191]")
"1 to 5 µM"
>>> test_result("NC1=N[C@]2(CO1)c1cc(C#CC3CCCCC3)ccc1Oc1ccc(-c3cncnc3)cc12 [compound 138]")
"0.1 to 1 µM"
>>> test_result("C[C@@H]1OC(N)=N[C@@]12c1cc(OCC(C)(C)C)ccc1Oc1ccc(-c3cncnc3)cc12 [126b]")
"0.1 to 1 µM"
>>> test_result("CCOC(C)(C)COc1ccc2c(c1)[C@]1(COC(N)=N1)c1cc(-c3cncnc3)ccc1O2 [compound 170]")
"< 0.1 µM"
>>> test_result("NC1=NC2(CO1)c1cc(-c3cccnc3)ccc1Oc1ncc(-c3cccnc3)cc12 (stereo not shown) [Example 113]")
"< 0.1 µM"

* * *

# Subject Of Test: BACE1 (Homo sapiens, UniProt P56817)
# Procedure Text: In Vitro BACE Cell-based Assay (HEK cell assay): Aβ40 in conditioned medium of cells stably expressing Amyloid Precursor Protein, sandwich ELISA
# Conditions: HEK cell assay, Table IV, class symbols
pIC50: −log10 of the molar value.
Property: pIC50

>>> test_result("NC1=N[C@@]2(CO1)c1cc(-c3cccnc3F)ccc1Oc1cnc(C3=CCOCC3)cc12")
"> 7.00"

* * *

# Subject Of Test: BACE1 (Homo sapiens)
# Procedure Text: In Vitro Enzymatic BACE FRET (Fluorescence Resonance Energy Transfer) Assay
# Format: biochemical
# Conditions: read-out: BACE1 FRET assay
pIC50: −log10 of the molar value.
# Lookup of reported pIC50 keyed by entry
Property: pIC50

>>> test_result("NC1=N[C@@]2(CO1)c1cc(Br)ccc1Oc1ccc(C#CC3(O)COC3)cc12 [compound 682]")
"5.30 to 6.00"
>>> test_result("CC1(C)C=C(c2cc3c(cn2)Oc2ccc(-c4cccnc4)cc2[C@@]32COC(N)=N2)CCO1 [compound 437]")
"> 7.00"
>>> test_result("NC1=N[C@]2(CO1)c1cc(C3=CCOCC3)ccc1Oc1cc(F)c(-c3cccnc3)cc12 [compound 492]")
"> 7.00"
>>> test_result("CC1(C)C=C(c2ccc3c(c2)[C@]2(COC(N)=N2)c2cc(-c4cncnc4)ccc2O3)CCO1 [Example 689]")
"> 7.00"
>>> test_result("Cc1csc(-c2ccc3c(c2)[C@]2(COC(N)=N2)c2cc(-c4cccnc4)ccc2O3)c1 [compound 726]")
"> 7.00"
>>> test_result("CC1(COc2ccc3c(c2)[C@@]2(COC(N)=N2)c2cc(-c4ccccc4)cnc2O3)COC1 [compound 966]")
"> 7.00"
>>> test_result("COC(C)(C)C#Cc1cnc2c(c1)[C@@]1(COC(N)=N1)c1cc(-c3cnccn3)ccc1O2 [compound 694]")
"5.30 to 6.00"
>>> test_result("COc1ccc2c(c1)[C@@]1(COC(N)=N1)c1cc(-c3ccc(OCC4CC4)nc3)cnc1O2 [compound 668]")
"6.00 to 7.00"
